test: chemical genetic growth profiling, strain panel (AID 1159580);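 note: tested at 20 µM; growth read once vehicle control cultures reached saturation at 30 °C; 1 = growth at the plate median or of vehicle wells; lower values mean less growth of the strain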; conditions: S. cerevisiae deletion strains, growth OD, locus YLR370C, strain arc18, stronger effect = lower value
Screen size: about 5,500 compounds; about 2,000 (36%) were called active. Another 18% or so got no clear call; they are omitted. Some of the results follow.
Documented normalized growth across a set of molecules
Simply state the number, no unit and no words.

Example molecules with recorded normalized growth:
{"columns": ["Molecule", "normalized growth"],
 "data": [
  ["COc1cc(OC)c(OC)cc1C=O", 0.997],
  ["O=[N+]([O-])c1cccc2cn[nH]c12", 0.994],
  ["Cc1ncc([N+](=O)[O-])n1CC(C)O (stereo not drawn)", 0.992],
  ["NS(=O)(=O)c1cc2c(cc1Cl)NC(C1CC3C=CC1C3)NS2(=O)=O (stereo not drawn)", 0.992],
  ["Nc1cc(-c2ccncc2)c[nH]c1=O", 0.514],
  ["CC(CCC(=O)O)[C@H]1CCC2C3C(C[C@H](O)[C@@]21C)[C@@]1(C)CC[C@@H](O)C[C@H]1C[C@H]3O (stereo partly drawn)", 0.999]
]}

Qu. Could you tell me which normalized growth is on file for `O=C(O)c1ccccc1C(=O)Nc1ccc(S(=O)(=O)Nc2nccs2)cc1` ?
Ans. 0.959

Qu. Do the same for `COc1cc([C@H]2Oc3cc([C@H]4Oc5cc(O)cc(O)c5C(=O)[C@@H]4O)ccc3O[C@@H]2CO)ccc1O` please
Ans. 1

Qu. Also check `O=[N+]([O-])c1cccc2c(Br)[nH]nc12`
Ans. 0.986

Qu. How about this molecule: `CNC(=O)Oc1ccc2c(c1)[C@]1(C)CCN(C)[C@@H]1N2C`
Ans. 1.03

Qu. Query `O=c1cc(-c2ccccc2)oc2cc(O)c(O)cc12` next
Ans. 0.935

Qu. Please give the result for C[C@]12C=CC(=O)C=C1CCC1C3C[C@@H](O)[C@](O)(C(=O)CO)[C@@]3(C)C[C@H](O)[C@@]12F (stereo partly drawn) too.
Ans. 0.991

Qu. Same lookup for `Cc1nc2ccccn2c(=O)c1CCN1CCC(C(=O)c2ccc(F)cc2)CC1` , please.
Ans. 0.991

Qu. Try `Cc1cc(=O)oc2c(O)c(O)ccc12` next.
Ans. 0.958

Where do these numbers come from? They come from PubChem BioAssay AID1159580.
